Test system: MCF-7 cells stably expressing UbC HA-ER-α wild-type
method: MCF-7 Stable Cell Line Viability (UbC HA-ER-α series)
Assay type: cell-based
conditionParameters: UbC HA-ER-α Wild-type; Antagonist Mode; +E2; read-out: Potency (EC50; nM)
readout: EC50 (nM)
Give the value, in units of nM, as a plain number.

Query (molecule): CCC(=C(c1ccc(O)cc1)c1ccc(OCCN(C)C)cc1)c1ccccc1 [4-Hydroxytamoxifen] ; field requested: EC50 2.95

---

System: MCF-7 cells (negative control)
method: MCF-7 Stable Cell Line Viability (UbC HA-ER-α series)
Assay type: cell-based
conditionParameters: Receptor None (MCF-7 negative control), Agonist Mode, −E2, Day 5 relative to Day 0
readout: Efficacy (Emax)
Just the number, please, no unit after it.

CC1=C(c2cccc(O)c2)[C@H](c2ccc(OCCN3CC(CF)C3)cc2)Oc2ccc(O)cc21	1.20
CCC(=C(c1ccc(O)cc1)c1ccc(OCCN(C)C)cc1)c1ccccc1 [4-Hydroxytamoxifen]	1.42

For the compound C[C@]12CC[C@@H]3c4ccc(O)cc4C[C@@H](CCCCCCCCC[S+]([O-])CCCC(F)(F)C(F)(F)F)[C@H]3[C@@H]1CC[C@@H]2O (some centres unmarked) , what Efficacy (Emax) is on record? 1.27

Consider the compound shown here: CC/C(=C(/c1ccc(/C=C/C(=O)O)cc1)c1ccc2[nH]ncc2c1)c1ccc(F)cc1Cl What is its recorded Efficacy (Emax)? 1.23

I have this compound here, C[C@]12CC[C@@H]3c4ccc(O)cc4CC[C@H]3[C@@H]1CC[C@@H]2O , and I need its recorded Efficacy (Emax). 4.12

---

Tested on: MCF-7 cells stably expressing EF1 HA-ER-α L536P
method: cells
Format: cell-based
conditionParameters: EF1 HA-ER-α L536P; Agonist Mode; −E2; Day 5 relative to Day 0
Returns one of Satisfied or Not satisfied; Satisfied when Efficacy (Emax) is >= 4.

C[C@]12CC[C@@H]3c4ccc(O)cc4C[C@@H](CCCCCCCCC[S+]([O-])CCCC(F)(F)C(F)(F)F)[C@H]3[C@@H]1CC[C@@H]2O (some centres unmarked) [Fulvestrant]	Not satisfied
CC1=C(c2cccc(O)c2)[C@H](c2ccc(OCCN3CC(CF)C3)cc2)Oc2ccc(O)cc21 [Compound 4-23]	Not satisfied
CC/C(=C(/c1ccc(/C=C/C(=O)O)cc1)c1ccc2[nH]ncc2c1)c1ccc(F)cc1Cl [Compound 1-3]	Not satisfied

Would you say CCC(=C(c1ccc(O)cc1)c1ccc(OCCN(C)C)cc1)c1ccccc1 [4-Hydroxytamoxifen] shows Efficacy (Emax) at minimum 4? Not satisfied

Is Efficacy (Emax) for C[C@]12CC[C@@H]3c4ccc(O)cc4CC[C@H]3[C@@H]1CC[C@@H]2O [17β-Estradiol] at or above 4? Satisfied

---

System: MCF-7 cells transduced with an empty EF1 lentiviral vector (negative control)
method: MCF-7 Stable Cell Line Viability (EF1 HA-ER-α series)
Format: cell-based
conditionParameters: Receptor None (empty EF1 lentiviral vector); Antagonist Mode; +E2; Day 5 relative to Day 0
Description: MCF-7 Mutant ER-α Stable Cell Line Generation: MCF-7 cells stably expressing wild-type or ER-α mutants were generated by subcloning ESR1 wild-type and mutant cDNAs containing an amino terminal hemagglutinin tag into pCDH-EF1-MCS-(PGK-Puro) (referred to as EF1 HA-ER-α) and pCDH-UbC-MCS-EF1-Hygro (referred to as UbC HA-ER-α) (System Biosciences). […]
Measured Efficacy (Emax), listed per entry.
Give the figure by itself; no unit, no explanation.

CC1=C(c2cccc(O)c2)[C@H](c2ccc(OCCN3CC(CF)C3)cc2)Oc2ccc(O)cc21	0.96
CCC(=C(c1ccc(O)cc1)c1ccc(OCCN(C)C)cc1)c1ccccc1 [4-Hydroxytamoxifen]	1.60
C[C@]12CC[C@@H]3c4ccc(O)cc4CC[C@H]3[C@@H]1CC[C@@H]2O	4.24
CC/C(=C(/c1ccc(/C=C/C(=O)O)cc1)c1ccc2[nH]ncc2c1)c1ccc(F)cc1Cl	1.01

Query (molecule): C[C@]12CC[C@@H]3c4ccc(O)cc4C[C@@H](CCCCCCCCC[S+]([O-])CCCC(F)(F)C(F)(F)F)[C@H]3[C@@H]1CC[C@@H]2O (some centres unmarked) ; field requested: Efficacy (Emax) 1.04
